Taken from patent US8236779B2.

Parameter pIC50: see the listing below.
# targetUnderTest: HCV polymerase (NS5B570n-Con1) (Hepatitis C virus genotype 1b)
# Construct: a 21 amino acid C-terminal deletion of full-length HCV polymerase derived from HCV Con1 strain
# protocolDetails: HCV NS5B RNA polymerase activity
pIC50: −log10 of the molar value.
readoutKind: pIC50

{"molecule": "[N-]=[N+]=N[C@]1(COP(=O)(O)OP(=O)(O)OP(=O)(O)O)O[C@@H](n2ccc(N)nc2=O)[C@H](O)[C@@H]1O [4′-AC-triphosphate, 4′-azido-cytidine triphosphate]", "readoutKind": "pIC50", "recordedNumber": 4.54}
{"molecule": "[N-]=[N+]=N[C@]1(COP(=O)(O)OP(=O)(O)OP(=O)(O)O)O[C@@H](n2ccc(=O)[nH]c2=O)[C@H](O)[C@@H]1O [4′-AU triphosphate, 4-azidouridine triphosphate]", "readoutKind": "pIC50", "recordedNumber": 6.34}
